# Test system: MCF7 breast
# Method description: NCI tumour cell line growth inhibition, 48 h
Outcome measure: TGI (µM)
Numbers only, in µM.

Previously resolved entries follow.
[
  {
    "Compound": "CC(C)(C)OC(=O)N1C(C2=COc3ccccc3O2)=COc2ccccc21",
    "TGI, µM": 60.2
  },
  {
    "Compound": "Cc1cccc(CN(C)c2ccc(CO)c(Cl)c2)c1",
    "TGI, µM": 21.3
  },
  {
    "Compound": "CCN1CCC[C@H]1c1cc(O)c2c(c1OC)C[C@H]1C[C@H]3[C@H](N)C(=O)C(C(N)=O)=C(O)[C@@]3(O)C(=O)C1=C2O",
    "TGI, µM": 6.1
  },
  {
    "Compound": "O=C(N=Nc1ccc([N+](=O)[O-])cc1)NNc1ccc([N+](=O)[O-])cc1",
    "TGI, µM": 22.9
  }
]

Fill in TGI for each of the 5 compounds listed.
1. C=C1CC[C@@H]2C(C)(C)[C@@H](O)CC[C@@]2(C)[C@@H]1COc1ccc2ccc(=O)oc2c1
2. COc1cc2c(cc1C)NC(=O)/C2=C/c1c(Cl)[nH]c2cc(C)c(OC)cc12
3. N#CC12COC3(CCCCC3C1(C#N)C#N)OC2=N (stereo unspecified)
4. O=C(N[C@H](c1ccc(Cl)c(Cl)c1)C1CNC1)c1ccc2cnccc2c1
5. COc1ccc(C2CCc3nc4nc(N)nc(N)c4cc3C2)cc1 (stereo unspecified)

**A:**
1. 24.7
2. 20.4
3. 29.5
4. 13.9
5. 28.8
